B1: CPXM2 (parent)
chain: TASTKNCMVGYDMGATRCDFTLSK

variants of: B1; assay: protein stability index of a GFP-peptide fusion (GPS, HEK-293T) (PSI 1-6); higher = more stable; conditions: c terminus: a fixed tail appended;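 note: lentivirally expressed fusions sorted by FACS into six bins by GFP to DsRed ratio, PSI derived from sequencing read proportions per bin multiplied by bin number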
Catalogue of variants with associated protein stability index
Give only the figure.

ALTERATION	REPORTED_VALUE
K5A	2.3
D12K	2.47
C7G	3.75
K24I	3.76
T1G	1.88
A2Y	2.31

Indicate its recorded protein stability index; the variant in question is A2G
2.91

// fetch protein stability index given entry R17L
3.53

Return value of protein stability index for input G10Q , no commentary.
1.73

Give protein stability index for M13C
2.08

Fill in protein stability index for record S23M
2
